System: murine bone marrow-derived dendritic cells (BM-DCs)
Test: Cytokine/chemokine secretion by murine bone marrow-derived dendritic cells (ELISA)
Type: cell-based, mouse
Conditions: murine BM-DCs, FIGS. 2B, 2H; peptides 200 μg/ml, HMGB1-Bx 50 μg/ml, 48 h
Where no end group is shown, it is not given here. The star is where a group is joined. Biotin = O=C1N[C@H]2[C@H](CS[C@H]2CCCCC(=O)*)N1
Endpoint name: secretion of IL-12 (p70)

>>> print(df.to_string())
                              residue_codes             endpoint_name      recorded_value
0  CSEYRPKIKGEHPGLSIG [Hp-106] (Biotin-CSEYRPKIKGEHPGLSIG; listed as Homo sapiens)  secretion of IL-12 (p70)  enhanced secretion
1                YAFFVQTCREEHIKKHPD [Hp-16]  secretion of IL-12 (p70)  enhanced secretion

----------
Tested on: human immature monocyte-derived dendritic cells (DCs)
Assay: Cytokine/chemokine secretion by human immature monocyte-derived dendritic cells (ELISA)
Type: cell-based
Parameters: key: “+” indicates an increase; “−” indicates no change relative to untreated cells (medium)
Conditions: HUMAN DC; ELISA 48 h after exposure; peptides 200 μg/ml, HMGB1-Bx 50 μg/ml; relative to untreated cells
Where no end group is shown, it is not given here. The star is where a group is joined. Biotin = O=C1N[C@H]2[C@H](CS[C@H]2CCCCC(=O)*)N1
Endpoint name: IL-6 secretion

In [3]: df
Out[3]:
                              residue_codes                         target_under_test   endpoint_name  recorded_value
0  HPDASVNFSEFSKKCSER (Biotin-HPDASVNFSEFSKKCSER; listed as Homo sapiens) [Hp-31]  human immature monocyte-derived dendritic cells (DCs)  IL-6 secretion               +
1                YAFFVQTCREEHIKKHPD [Hp-16]  human immature monocyte-derived dendritic cells (DCs)  IL-6 secretion               −
2  CSEYRPKIKGEHPGLSIG [Hp-106] (Biotin-CSEYRPKIKGEHPGLSIG; listed as Homo sapiens)  human immature monocyte-derived dendritic cells (DCs)  IL-6 secretion               +
3  DPNAPKRPPSAFFLFCSE (Biotin-DPNAPKRPPSAFFLFCSE; listed as Homo sapiens) [Hp-91]  human immature monocyte-derived dendritic cells (DCs)  IL-6 secretion               +

----------
System: murine bone marrow-derived dendritic cells (BM-DCs)
Test: Cytokine/chemokine secretion by murine bone marrow-derived dendritic cells (ELISA)
Assay type: cell-based, mouse
Settings: murine BM-DCs, FIG. 2C; peptides 200 μg/ml, HMGB1-Bx 50 μg/ml, 48 h
Where no end group is shown, it is not given here. The star is where a group is joined. Biotin = O=C1N[C@H]2[C@H](CS[C@H]2CCCCC(=O)*)N1
Endpoint name: secretion of IL-2

>>> df
                              residue_codes      recorded_value
0  CSEYRPKIKGEHPGLSIG [Hp-106] (Biotin-CSEYRPKIKGEHPGLSIG; listed as Homo sapiens)  enhanced secretion
1                YAFFVQTCREEHIKKHPD [Hp-16]  enhanced secretion

# credit: patent US8354106B2
